# subject-of-test: T1, Recombinant human CD123 SP1 ECD-His tag protein (human, UniProt P26951 20-305)
# T1 construct: bought from R&D Systems (#301-R3/CF); biotinylated for some assays; also called rhCD123 SP1; huCD123 ECD SP1
# T1 sequence: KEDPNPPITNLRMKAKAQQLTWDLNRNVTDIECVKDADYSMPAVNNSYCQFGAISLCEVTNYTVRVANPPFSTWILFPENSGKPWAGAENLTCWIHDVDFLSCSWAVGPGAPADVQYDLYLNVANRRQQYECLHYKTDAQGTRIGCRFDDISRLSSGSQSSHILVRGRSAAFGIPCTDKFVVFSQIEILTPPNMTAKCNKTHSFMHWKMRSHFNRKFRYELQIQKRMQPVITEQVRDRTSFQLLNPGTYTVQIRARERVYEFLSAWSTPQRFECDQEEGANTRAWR
# assay-procedure: SPR ProteOn, captured mAb
Exercise: state measured kon for each of the binders provided.
Entry rule: numbers only, all in M⁻¹ s⁻¹.

Exam item: Annotate the binder I3RB35 (antibody, IgG1, V domains shown, IgG1) VH: QVQLVQSGAEVKKPGSSVKVSCKASGGTFSSYAISWVRQAPGQGLEWMGGIIPIFGTANYAQKFQGRVTITADESTSTAYMELSSLRSEDTAVYYCARHLFWDAGPLDYWGQGTLVTVSS VL: DIQMTQSPSSLSASVGDRVTITCRASQSISSYLNWYQQKPGKAPKLLIYAASSLQSGVPSRFSGSGSGTDFTLTISSLQPEDFATYYCQQYFSPPYTFGQGTKVEIK with its measured kon.
Marked response: 1.04e+06

Exam item: # return recorded kon for input I3RB18 (antibody, IgG1, V domains shown, IgG1; also called 13RB18; mAb I3RB18) VH: EVQLVQSGAEVKKPGESLKISCKGSGYSFTSYWISWVRQMPGKGLEWMGIIDPSDSDTRYSPSFQGQVTISADKSISTAYLQWSSLKASDTAMYYCARGDGSTDLDYWGQGTLVTVSS VL: EIVLTQSPGTLSLSPGERATLSCRASQSVSSSYLAWYQQKPGQAPRLLIYGASSRATGIPDRFSGSGSGTDFTLTISRLEPEDFAVYYCQQDYGFPWTFGQGTKVEIK
Marked response: 1.44e+06
